# EXPERIMENT DESCRIPTION: blockers of DNA damage checkpoint Chk1 activation – imaging, HeLa, hydroxyurea, phospho-Chk1 nuclear intensity, primary screen (AID 1187); further: test concentration not given here
# MEASUREMENT PARAMETERS: hydroxyurea-induced phospho-Chk1 immunofluorescence imaging, higher = more signal
What z-score was measured for each of the following?
Enter the number alone.

q: I'd like to know its z-score. The compound in question is NC(=O)NCC#Cc1ccc2c(c1)[C@]1(C(=O)N2)[C@H](c2ccc(OCCO)cc2)N2[C@H](c3ccccc3)[C@H](c3ccccc3)OC(=O)[C@H]2[C@@H]1C(=O)N1CCCCCCC1
a: -0.265

q: Field entry: COc1ccc(C(=O)Nc2ccc(CN3C(=O)[C@@]4(O[C@@H](CC(=O)N5Cc6ccccc6C[C@H]5CO)[C@H]([Si](C)(C)c5ccc(OC)cc5)[C@H]4C)c4ccccc43)cc2)cc1
a: 0.514

q: Field entry: COc1ccc([Si](C)(C)[C@@H]2[C@@H](CC(=O)N(CCO)Cc3ccccc3)O[C@]3(C(=O)N(Cc4ccc(N5CCOC5=O)cc4)c4ccccc43)[C@H]2C)cc1
a: 0.0764

====

# EXPERIMENT DESCRIPTION: plasmodial surface anion channel blockers, osmotic lysis – cell-based, P. falciparum Indochina, OD700, 18 h, primary screen (AID 1157)
# MEASUREMENT PARAMETERS: P. falciparum Indochina infected erythrocytes, osmotic lysis OD700, 18 h; higher = more signal, called active from +8 up or from −8 down
PROPERTY LABEL: z-score
Enter the number alone.

q: I'd like to know its z-score. The compound in question is CC(C)(C)OC(=O)CC[C@]1(C(=O)N2CCCCC2)N=C(c2ccc(OCCCO)cc2)O[C@H]1c1ccccc1CN=[N+]=[N-]
a: 0.158

q: Field entry: C=CC[C@@]1(C(=O)NCC(O)CO)N=C(c2ccc(OCCCO)cc2)O[C@@H]1c1ccccc1 (stereo partly drawn)
a: 0.394

q: Field entry: CCOC(=O)C[C@H]1[C@H](OC(=O)c2ccccc2-c2ccccc2)[C@@H](NC(=O)c2ccccc2)c2cc(OCCCO)ccc2N1C(=O)Cc1ccc(OC)cc1
a: 0.109

q: Field entry: COC(=O)[C@@]1(Cc2ccc(OC)cc2)[C@H]2c3cc(C(=O)N4CCCC4)n(CCc4ccc(O)c(OC)c4)c3C[C@H]2CN1C(=O)c1ccccc1
a: 0.594

q: Field entry: COCCCNC(=O)[C@@H]1c2ccccc2C(=O)N(c2ccc(C)cn2)[C@H]1c1ccc(CO)cc1
a: 0.205

q: Field entry: O=C(C=C(CC(O)c1cccc(Cl)c1)OCCF)OCCF (stereo not drawn)
a: -1.67

q: Field entry: O=C(O)[C@]1(CCS(=O)(=O)c2ccccc2)N=C(c2ccc(OCCCO)cc2)O[C@@H]1c1ccccc1
a: -0.169

q: Field entry: CCCNC(=O)[C@@]1(Sc2ccc(C)cc2)CC(=O)N(Cc2ccccc2)[C@@H]1c1ccc(CO)cc1I
a: 0.206

====

# TARGET OR SYSTEM: Streptavidin (Streptomyces avidinii) (UniProt P22629)
# Sequence (P22629 whole entry, looked up): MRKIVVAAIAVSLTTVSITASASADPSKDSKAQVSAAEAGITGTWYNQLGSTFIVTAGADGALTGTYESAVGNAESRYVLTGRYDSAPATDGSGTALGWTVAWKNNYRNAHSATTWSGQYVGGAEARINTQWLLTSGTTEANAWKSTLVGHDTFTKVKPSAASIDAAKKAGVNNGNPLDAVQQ
# EXPERIMENT DESCRIPTION: compounds binding control protein streptavidin – biophysical, small-molecule microarray, 635/667 nm fluorescence, artefact control for SMM compound annotation, primary screen (AID 1147);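 further: signal reflects streptavidin binding to arrayed compounds as a control protein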
# MEASUREMENT PARAMETERS: higher = more signal
What composite z-score was measured for each of the following?
Enter the number alone.

q: I'd like to know its composite z-score. The compound in question is COc1ccccc1CN1C(=O)c2ccccc2[C@@H](C(=O)NCC(C)C)[C@@H]1c1ccc(CO)cc1
a: -0.378

q: Field entry: CCCC[C@@H](O)C1=C(COc2ccccc2)Cn2c(=O)n(-c3ccccc3)c(=O)n2[C@H]1CO
a: -0.447

q: Field entry: O=C1O[C@H](c2ccccc2)[C@H](c2ccccc2)N2[C@H]1[C@@H](C(=O)N1CCCCCCC1)[C@]1(C(=O)Nc3ccccc31)[C@H]2c1ccc(O)cc1
a: 4.14

q: Field entry: C=CCN1C(=O)[C@@]2(O[C@@H](CCO)[C@H]([Si](C)(C)c3ccc(OC)cc3)[C@H]2C)c2cc(NC(=O)[C@H](C)O)ccc21
a: 0.0832

FYI, the data here is from PubChem BioAssay.
